Reference for the values: paper PMC9610943

Tested on: E. coli B2
Type: cell-based
Conditions: B2, 1 h, pH 6
Where no end group is shown, it is not given here.
observed.property: MIC after treatment at pH 6 (µg/mL)
Numbers only, in µg/mL.

Please go through the list and note MIC after treatment at pH 6 for each sequence.
1. GWKSFFKKWKHVWK [GK-2]
2. GWKKFFKKWKHVWK [GK-4]

Result block:
2
2

Please go through the list and note MIC after treatment at pH 6 for each sequence.
1. GWGSFFKKAAHVGKHVGKAALTHYL [Pleu, Pleurocidin]
2. GWKSFFKKFKHVWK [GK-3]

Result block:
1. 1
2. 2

* * *

Please respond with reported MIC in presence of Ca^2+ for every item in the list.
Tested on: E. coli B2
Assay type: cell-based
Conditions: B2
Where no end group is shown, it is not given here.

Check out these entries, answers already filled in.
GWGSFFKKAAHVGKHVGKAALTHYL [Pleu, Pleurocidin]
>128 µg/mL
GWKKFFKKWKHVWK [GK-4]
>128 µg/mL
GWKSFFKKFKHVWK [GK-3]
>128 µg/mL

Query block: Record request: MIC in presence of Ca^2+ value, item GWKSFFKKWKHVWK [GK-2]
Result block: >128 µg/mL

* * *

Tested on: MRSA T144
Format: cell-based, Staphylococcus aureus
Conditions: T144, 1 h
Where no end group is shown, it is not given here.
observed.property: MIC after treatment at 40 °C (µg/mL)
One number for each entry, in µg/mL.

GWKSFFKKWKHVWK [GK-2]
2
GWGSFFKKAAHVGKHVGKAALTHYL [Pleu, Pleurocidin]
2

Please go through the list and note MIC after treatment at 40 °C for each sequence.
1. GWKKFFKKWKHVWK [GK-4]
2. GWKSFFKKFKHVWK [GK-3]

Result block:
1. 2
2. 4

* * *

System: E. coli C3 (blaNDM-1)
Experiment: microbe, parasite or virus in culture
Assay type: cell-based
Conditions: C3 (blaNDM-1)
Where no end group is shown, it is not given here.
observed.property: MIC (µg/mL)
Give bare numbers, in µg/mL.

Check out these entries, answers already filled in.
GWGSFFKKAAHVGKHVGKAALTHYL [Pleu, Pleurocidin]
1
GWKKFFKKWKHVWK [GK-4]
2
GWKSFFKKWKHVWK [GK-2]
2

Query block: Record request: MIC value, item GWKSFFKKFKHVWK [GK-3]
Result block: 4

* * *

Test system: MRSA T144
Type: cell-based, Staphylococcus aureus
Settings: T144
Where no end group is shown, it is not given here.
Please respond with reported MIC in DMEM (10%) for every item in the list.
Numbers only, in µg/mL.

Check out these entries, answers already filled in.
GWKSFFKKWKHVWK [GK-2]
4
GWKSFFKKFKHVWK [GK-3]
4
GWKKFFKKWKHVWK [GK-4]
2

Query block: Record request: MIC in DMEM (10%) value, item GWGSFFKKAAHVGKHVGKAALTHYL [Pleu, Pleurocidin]
Result block: 2

* * *

Tested on: A. baumannii ATCC 19609
Assay: microbe, parasite or virus in culture
Format: cell-based
Conditions: ATCC 19609
Where no end group is shown, it is not given here.
observed.property: MIC (µg/mL)
Give bare numbers, in µg/mL.

Check out these entries, answers already filled in.
GWKSFFKKFKHVWK [GK-3]
4
GWKKFFKKWKHVWK [GK-4]
4
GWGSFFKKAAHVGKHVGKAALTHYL [Pleu, Pleurocidin]
2

Let us move to another entry and its MIC.
Query block: Record request: MIC value, item GWKSFFKKWKHVWK [GK-2]
Result block: 8

* * *

Test system: MRSA T144
Type: cell-based, Staphylococcus aureus
Details: T144
Where no end group is shown, it is not given here.
Please respond with reported MIC in presence of Mg^2+ for every item in the list.
Answers are plain numbers, in mg/L.

Check out these entries, answers already filled in.
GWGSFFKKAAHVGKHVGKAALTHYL [Pleu, Pleurocidin]
8
GWKSFFKKFKHVWK [GK-3]
8
GWKSFFKKWKHVWK [GK-2]
4

Let us move to another entry and its MIC in presence of Mg^2+.
Query block: Record request: MIC in presence of Mg^2+ value, item GWKKFFKKWKHVWK [GK-4]
Result block: 8

* * *

Test system: E. coli B2
Type: cell-based
Settings: B2, 1 h
Where no end group is shown, it is not given here.
Please respond with reported MIC after treatment at 40 °C for every item in the list.
Answers are plain numbers, in µg/mL.

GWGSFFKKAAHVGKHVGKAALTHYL [Pleu, Pleurocidin]
1
GWKSFFKKFKHVWK [GK-3]
2
GWKSFFKKWKHVWK [GK-2]
2

Query block: Record request: MIC after treatment at 40 °C value, item GWKKFFKKWKHVWK [GK-4]
Result block: 2

* * *

Please respond with reported MIC for every item in the list.
Tested on: E. coli CP131 (mcr-3)
Assay: microbe, parasite or virus in culture
Format: cell-based
Details: CP131 (mcr-3)
Where no end group is shown, it is not given here.
Numbers only, in µg/mL.

Check out these entries, answers already filled in.
GWKSFFKKFKHVWK [GK-3]
2
GWKKFFKKWKHVWK [GK-4]
2
GWKSFFKKWKHVWK [GK-2]
2

Query block: Record request: MIC value, item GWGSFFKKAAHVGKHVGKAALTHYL [Pleu, Pleurocidin]
Result block: 1

* * *

Please respond with reported MIC for every item in the list.
System: E. coli 1F28 (tet(X4))
Assay: microbe, parasite or virus in culture
Assay type: cell-based
Details: 1F28 (tet(X4))
Where no end group is shown, it is not given here.

Check out these entries, answers already filled in.
GWKKFFKKWKHVWK [GK-4]
16 µg/mL
GWKSFFKKFKHVWK [GK-3]
16 µg/mL
GWKSFFKKWKHVWK [GK-2]
16 µg/mL

Query block: Record request: MIC value, item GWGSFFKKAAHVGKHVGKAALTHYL [Pleu, Pleurocidin]
Result block: 4 µg/mL

* * *

Test system: MRSA T144
Assay type: cell-based, Staphylococcus aureus
Conditions: T144
Where no end group is shown, it is not given here.
observed.property: MIC in Plasma (10%) (µg/mL)
Numbers only, in µg/mL.

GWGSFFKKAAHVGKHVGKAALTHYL [Pleu, Pleurocidin]
2
GWKSFFKKWKHVWK [GK-2]
4
GWKSFFKKFKHVWK [GK-3]
4

Let us move to another entry and its MIC in Plasma (10%).
Query block: So what MIC in Plasma (10%) did GWKKFFKKWKHVWK [GK-4] get with MRSA T144?
Result block: 4

* * *

System: E. coli ATCC 25922
Assay: microbe, parasite or virus in culture
Assay type: cell-based
Details: ATCC 25922
Where no end group is shown, it is not given here.
Please respond with reported MIC for every item in the list.
One number for each entry, in µg/mL.

GWKSFFKKWKHVWK [GK-2]
8
GWKSFFKKFKHVWK [GK-3]
8

Please go through the list and note MIC for each sequence.
1. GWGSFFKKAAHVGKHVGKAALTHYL [Pleu, Pleurocidin]
2. GWKKFFKKWKHVWK [GK-4]

Result block:
1
8

* * *

Test system: MRSA T144
Format: cell-based, Staphylococcus aureus
Settings: T144, 1 h
Where no end group is shown, it is not given here.
observed.property: MIC after treatment at 60 °C (µg/mL)
One number for each entry, in µg/mL.

Check out these entries, answers already filled in.
GWKSFFKKFKHVWK [GK-3]
2
GWKKFFKKWKHVWK [GK-4]
2
GWKSFFKKWKHVWK [GK-2]
4

Let us move to another entry and its MIC after treatment at 60 °C.
Query block: Record request: MIC after treatment at 60 °C value, item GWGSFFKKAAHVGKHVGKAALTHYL [Pleu, Pleurocidin]
Result block: 1

* * *

Tested on: MRSA T144
Format: cell-based, Staphylococcus aureus
Details: T144
Where no end group is shown, it is not given here.
Please respond with reported MIC in presence of K^+ for every item in the list.
One number for each entry, in µg/mL.

Please go through the list and note MIC in presence of K^+ for each sequence.
1. GWKSFFKKFKHVWK [GK-3]
2. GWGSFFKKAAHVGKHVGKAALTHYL [Pleu, Pleurocidin]
3. GWKSFFKKWKHVWK [GK-2]
4. GWKKFFKKWKHVWK [GK-4]

Result block:
[4, 2, 4, 4]

* * *

Please respond with reported MIC after treatment at 121 °C for every item in the list.
System: E. coli B2
Format: cell-based
Settings: B2
Where no end group is shown, it is not given here.
Numbers only, in µg/mL.

Please go through the list and note MIC after treatment at 121 °C for each sequence.
1. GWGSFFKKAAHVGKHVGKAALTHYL [Pleu, Pleurocidin]
2. GWKSFFKKFKHVWK [GK-3]
3. GWKKFFKKWKHVWK [GK-4]
4. GWKSFFKKWKHVWK [GK-2]

Result block:
2
4
2
2
